assay-name: soluble on expression in E. coli; label from the status in PepcDB or PDB records

residues | soluble on expression in E. coli
MSKLPEIGTKISLTDKAYEIIKDAIMTNIFKPGELLIEEKLAEQLAISRTPLRAALRKLAYDHLVEINSSRNVIVANIGQKDVEEITVVREVLEPLAVKELENNIGEDELKKLEEILCRQKKAVLEDNYEELIKMEYEFHVAIGELTHNKWLHGMLKDINTIVQRYLILSGSLNKYKEVAIKEHEVIISEIRQGNYDKAVESMKCHISNVSSRMLK | not soluble
MGSDKIHHHHHHVTIEIRQLRYALMSADLRSFSGAASRLNVKQATLSRSVLQLEDRLGIKLFERTTRGAEPTETGKVFLETARRIITDLENLQTTARAVSYGEQGRFAVGYCSSLMAGHLKAAFSDYLTRFPDVQFDGVEGDPDKLCSDLRAGTIDVAIAPLGSEEQGIASRPVWSERLVAALYPEHPLLEASRIYWGDLRREIFVVPRKGIGQMIRNMITARLTGQGYRPNIITQETSLESVLSMVPVGRFITIATEASMGVAWPELQFRDIYDNGGTARIDFALYWREDNENPALQRFFTMINERYPA | not soluble
